- PROTOCOL_SUMMARY: Antiproliferative activity against human PC3 cells after 72 hrs by XTT assay
- Assay type: functional, cell-based
- ASSAY_CONTEXT: PC-3, 72 h
Parameter: IC50. Scope: all listed entries.
Give the value in µM but do not write µM after it.

// IC50 lookup, compound = CN(C)CCCO/N=C/c1cccc2nc3c(nc12)-c1ccccc1/C3=N\OCCCN(C)C.Cl , result: 6.27

Looking up CN(C)CCCO/N=C1\c2ccccc2-c2nc3c(CN(C)C)cccc3nc21.Cl , I found its IC50 recorded as 0.78

So, CN(C)CCCO/N=C1\c2ccccc2-c2nc3c(CN4CCCC4)cccc3nc21.Cl ? Its IC50 was 0.78

Measured IC50, CN(C)CCNC(=O)c1cccc2nc3c(nc12)-c1ccccc1C3=O : 11

The compound identified as CN(C)CCCNC(=O)c1cccc2nc3c(nc12)-c1ccccc1/C3=N\OCCCN(C)C.Cl registered its IC50 at 0.82

So, CN(C)CCCO/N=C1\c2ccccc2-c2nc3c(C(=O)NCCN4CCOCC4)cccc3nc21.Cl ? Its IC50 was 9.78

Now let's try a different one.
Value of IC50 reported for the compound CN(C)CCCO/N=C1\c2ccccc2-c2nc3c(C(=O)NCCN(C)C)cccc3nc21.Cl is 0.89
